Origin of the recorded values: patent US20260335223A1

# testProtocol: Aqueous solubility with/without diblock copolymer (visual, film rehydration)
# assayConditions: with DBC3333 50 mg/mL; drug 1000 μg/mL

compound | Aqueous solubility
CCCCCc1cc(O)c(C/C=C(\C)CCC=C(C)C)c(O)c1 | Soluble
C=C(C)[C@@H]1CCC(C)=C[C@H]1c1c(O)cc(CCCCC)cc1O | Soluble
CCCCCc1cc(O)c2c(c1)OC(C)(C)[C@@H]1CCC(C)=C[C@@H]21 [THC, tetrahydrocannabinol] | Soluble

====

# testProtocol: Aqueous solubility with/without diblock copolymer (visual, film rehydration)
# assayConditions: with DBC3333 50 mg/mL; drug 3000 μg/mL

compound | Aqueous solubility
C=C(C)[C@@H]1CCC(C)=C[C@H]1c1c(O)cc(CCCCC)cc1O [CBD, cannabidiol] | Insol.
CCCCCc1cc(O)c(C/C=C(\C)CCC=C(C)C)c(O)c1 [CBG, cannabigerol] | Insol.
CC(C)(C)NC(=O)[C@H]1CC[C@H]2[C@@H]3CC[C@H]4NC(=O)C=C[C@]4(C)[C@H]3CC[C@]12C [finasteride] | Insol.

====

# testProtocol: Aqueous solubility with/without diblock copolymer (visual, film rehydration)
# assayConditions: with DBC3333 50 mg/mL; drug 2000 μg/mL
experimentalEndpoint: Aqueous solubility

molecule | experimentalEndpoint | measValue
CCCCCc1cc(O)c(C/C=C(\C)CCC=C(C)C)c(O)c1 [CBG, cannabigerol] | Aqueous solubility | Partially
C=C(C)[C@@H]1CCC(C)=C[C@H]1c1c(O)cc(CCCCC)cc1O [CBD, cannabidiol] | Aqueous solubility | Partially
